# System: Caco-2 cell
# assay name: Caco-2 cell penetration assay
# Assay type: in vitro ADME
metric: permeability in the Caco-2 study (in words)

| compound | value |
| --- | --- |
| COC(=O)N[C@H](C(=O)NN(CC[C@@]1(Cc2ccccc2)C(=O)N([C@H]2c3ccccc3C[C@H]2O)C[C@H]1O)Cc1ccc(-c2cccnc2)cc1)C(C)(C)C [Compound 13g] | moderate permeability |
| COC(=O)N[C@H](C(=O)NN(CC[C@@]1(Cc2ccccc2)C(=O)N([C@H]2c3ccccc3C[C@H]2O)C[C@@H]1O)Cc1ccc(-c2cccnc2)cc1)C(C)(C)C [Compound 13h] | moderate permeability |
